Details: in n-propanol, 313.15 K
readout.label: solubility (mole fraction)
Form rule: numeric answer, no unit written next to it.

input: Look up solubility (mole fraction): `CC#C[C@]1(O)CC[C@H]2[C@@H]3CCC4=CC(=O)CCC4=C3[C@@H](c3ccc(N(C)C)cc3)C[C@@]21C`
output: 0.000499

---

Settings: in n-propanol, 278.15 K
readout.label: solubility (mole fraction)
Form rule: numeric answer, no unit written next to it.

input: Look up solubility (mole fraction): `CC#C[C@]1(O)CC[C@H]2[C@@H]3CCC4=CC(=O)CCC4=C3[C@@H](c3ccc(N(C)C)cc3)C[C@@]21C`
output: 0.000163
